Consider the following compounds; for each one, report its pIC50.
pIC50: −log10 of the molar value.

Report pIC50 for "C=CC(=O)Nc1cccc(Nc2nc(Nc3ccc(N4CCN(C(=O)CO)CC4)cc3OC)ncc2C(F)(F)F)c1" tested on EGFR (WT) (Homo sapiens (Human), UniProt P00533).
Sequence (P00533 25-1210): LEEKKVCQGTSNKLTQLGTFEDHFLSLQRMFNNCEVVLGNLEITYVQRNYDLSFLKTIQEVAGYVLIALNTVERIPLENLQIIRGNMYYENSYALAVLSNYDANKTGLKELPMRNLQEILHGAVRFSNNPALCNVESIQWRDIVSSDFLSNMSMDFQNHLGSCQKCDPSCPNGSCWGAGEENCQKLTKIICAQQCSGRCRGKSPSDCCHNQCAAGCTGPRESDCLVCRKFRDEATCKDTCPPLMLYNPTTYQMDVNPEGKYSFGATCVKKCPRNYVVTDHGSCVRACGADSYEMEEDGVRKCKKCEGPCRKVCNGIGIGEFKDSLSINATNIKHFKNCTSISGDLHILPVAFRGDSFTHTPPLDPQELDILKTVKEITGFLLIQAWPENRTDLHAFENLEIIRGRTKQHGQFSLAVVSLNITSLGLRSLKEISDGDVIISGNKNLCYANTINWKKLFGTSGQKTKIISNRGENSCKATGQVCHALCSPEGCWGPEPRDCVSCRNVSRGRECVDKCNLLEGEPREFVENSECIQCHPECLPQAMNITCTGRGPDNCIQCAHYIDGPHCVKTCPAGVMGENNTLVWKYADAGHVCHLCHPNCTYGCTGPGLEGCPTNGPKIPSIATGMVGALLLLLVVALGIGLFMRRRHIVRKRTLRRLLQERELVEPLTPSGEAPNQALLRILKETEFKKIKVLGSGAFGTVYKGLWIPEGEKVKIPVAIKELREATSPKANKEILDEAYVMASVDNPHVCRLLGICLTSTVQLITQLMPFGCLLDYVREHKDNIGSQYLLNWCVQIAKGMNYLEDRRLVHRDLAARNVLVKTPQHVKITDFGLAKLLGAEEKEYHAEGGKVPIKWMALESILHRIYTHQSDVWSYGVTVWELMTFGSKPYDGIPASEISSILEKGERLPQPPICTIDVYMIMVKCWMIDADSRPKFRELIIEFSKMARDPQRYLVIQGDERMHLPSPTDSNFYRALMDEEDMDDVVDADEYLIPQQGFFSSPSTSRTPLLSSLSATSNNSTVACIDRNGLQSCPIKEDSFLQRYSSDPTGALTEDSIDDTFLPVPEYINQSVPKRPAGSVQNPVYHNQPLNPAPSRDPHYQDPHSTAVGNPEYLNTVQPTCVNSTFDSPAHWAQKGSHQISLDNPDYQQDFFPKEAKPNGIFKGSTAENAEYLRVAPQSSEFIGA
8.00 to 9.00

Report pIC50 for "C=CC(=O)Nc1cccc(Oc2nc(Nc3ccc(N4CCN(C(=O)OC)CC4)cc3OC)ncc2C(F)(F)F)c1" tested on EGFR (WT) (Homo sapiens (Human), UniProt P00533).
7.52 to 8.00

Report pIC50 for "C=CC(=O)Nc1cccc(Nc2nc(Nc3ccc(N4CCN(S(C)(=O)=O)CC4)cc3OC)ncc2Cl)c1" tested on EGFR (WT) (Homo sapiens (Human), UniProt P00533).
7.00 to 7.52

Report pIC50 for "C=CC(=O)Nc1cccc(Nc2nc(Nc3ccc(N4CCN(C(C)=O)CC4)cc3OC(F)(F)F)ncc2C(F)(F)F)c1" tested on EGFR (WT) (Homo sapiens (Human), UniProt P00533).
8.00 to 9.00

Report pIC50 for "C=CC(=O)Nc1cccc(Oc2nc(Nc3ccc(N4CCN(C(=O)OC(C)(C)C)CC4)cc3OC(F)(F)F)ncc2Cl)c1" tested on EGFR (WT) (Homo sapiens (Human), UniProt P00533).
< 6.00

Report pIC50 for "C=CC(=O)Nc1cccc(Oc2nc(Nc3ccc(N4CCN(S(C)(=O)=O)CC4)cc3OC)ncc2C(F)(F)F)c1" tested on EGFR (WT) (Homo sapiens (Human), UniProt P00533).
7.00 to 7.52

Report pIC50 for "C=CC(=O)Nc1cccc(Oc2nc(Nc3ccc(N4CCN(C(=O)CC(C)(C)C)CC4)cc3OC)ncc2Cl)c1" tested on EGFR (WT) (Homo sapiens (Human), UniProt P00533).
6.52 to 7.00

Report pIC50 for "C=CC(=O)Nc1cccc(Oc2nc(Nc3ccc(N4CCCN(C(=O)OC(C)(C)C)CC4)cc3OC)ncc2Cl)c1" tested on EGFR (WT) (Homo sapiens (Human), UniProt P00533).
6.00 to 6.52

Report pIC50 for "C=CC(=O)Nc1cccc(Oc2nc(Nc3ccc(N4CCN(C(C)=O)CC4)cc3OC)ncc2C(F)(F)F)c1" tested on EGFR (WT) (Homo sapiens (Human), UniProt P00533).
8.00 to 9.00

Report pIC50 for "C=CC(=O)Nc1cccc(Oc2nc(Nc3ccc(N4CCN(C(=O)OC(C)(C)C)CC4)cc3OCC)ncc2Cl)c1" tested on EGFR (WT) (Homo sapiens (Human), UniProt P00533).
< 6.00

Report pIC50 for "C=CC(=O)Nc1cccc(Nc2nc(Nc3ccc(N4CCCN(C(=O)OC(C)(C)C)CC4)cc3OC)ncc2C(F)(F)F)c1" tested on EGFR (WT) (Homo sapiens (Human), UniProt P00533).
6.00 to 6.52

Report pIC50 for "C=CC(=O)Nc1cccc(Nc2nc(Nc3ccc(N4CCCN(C(=O)C(F)(F)F)CC4)cc3OC)ncc2C(F)(F)F)c1" tested on EGFR (WT) (Homo sapiens (Human), UniProt P00533).
6.52 to 7.00

Report pIC50 for "C=CC(=O)Nc1cccc(Nc2nc(Nc3ccc(N4CCN(C(C)=O)CC4)cc3OC(F)F)ncc2C(F)(F)F)c1" tested on EGFR (WT) (Homo sapiens (Human), UniProt P00533).
> 9.00

Report pIC50 for "C=CC(=O)Nc1cccc(Nc2nc(Nc3ccc(N4CCN(C(=O)NC)CC4)cc3OC)ncc2C(F)(F)F)c1" tested on EGFR (WT) (Homo sapiens (Human), UniProt P00533).
8.00 to 9.00
